For each record, write down the corresponding CC90.
Test system: MDA-MB-231 cells
Assay: MTS viability assay, MDA-MB-231 breast cancer cells
Format: cell-based, human
Conditions: Table 6, 48 h, read-out: MB-MDA-231 CC90
Field format: number, assumed µM, no unit text.

[in] Which measured CC90 value corresponds to CCCCCCCCCCCCCCCCOC[C@H](COC1O[C@H](CNCCCCCCCCCCCCN)[C@@H](O)[C@H](O)[C@H]1N)OC (stereo partly shown) ?
[out] 3.8

[in] Which measured CC90 value corresponds to CCCCCCCCCCCCCCCCOC[C@H](COC1O[C@H](CN)[C@@H](O)[C@H](O)[C@H]1NCCCCCCCCCCCCN)OC (stereo partly shown) ?
[out] 9.5

[in] Which measured CC90 value corresponds to CCCCCCCCCCCCCCCCOC[C@H](COC1O[C@H](CNCCCN)[C@@H](O)[C@H](O)[C@H]1N)OC (stereo partly shown) ?
[out] 19.5

* * *

System: MiaPaCa2 cells
Test: MTS viability assay, MiaPaCa2 pancreas cancer cells
Assay type: cell-based, human
Details: Table 1A, 48 h, read-out: CC50 values MiaPaCa2
For each record, write down the corresponding CC50.

[in] Which measured CC50 value corresponds to CCCCCCCCCCCCCCCCOCC(N)CO[C@H]1O[C@H](CO)[C@@H](O)[C@H](O)[C@H]1N (some centres unmarked) [Compound 8] ?
[out] 8.5 µM

[in] Which measured CC50 value corresponds to CCCCCCCCCCCCCCCCOCC(CO[C@@H]1O[C@H](CN)[C@@H](O)[C@H](O)[C@H]1N)O[C@@H]1O[C@H](CN)[C@@H](O)[C@H](O)[C@H]1N (some centres unmarked) [Compound 5] ?
[out] > 30 µM

[in] Which measured CC50 value corresponds to CCCCCCCCCCCCCCCCOC[C@H](CO[C@@H]1O[C@H](CN)[C@@H](O)[C@H](O)[C@H]1N)OC [Compound 2] ?
[out] 7 µM

[in] Which measured CC50 value corresponds to CCCCCCCCCCCCCCCCOCC(CO[C@@H]1O[C@H](CO)[C@@H](O)[C@H](O)[C@H]1N)NC(=O)CCCCCCCCCCCCCCC (some centres unmarked) [Compound 9] ?
[out] > 30 µM

[in] Which measured CC50 value corresponds to CCCCCCCCCCCCCCCCOC[C@@H](CN)O[C@H]1O[C@H](CO)[C@@H](O)[C@H](O)[C@H]1N [Compound 7] ?
[out] 15 µM

[in] Which measured CC50 value corresponds to CCCCCCCCCCCCCCCCOC[C@H](CO[C@H]1O[C@H](CN)[C@@H](O)[C@H](O)[C@H]1N1C(=O)c2ccccc2C1=O)OC [Compound 3] ?
[out] > 30 µM

[in] Which measured CC50 value corresponds to CCCCCCCCCCCCCCCCOC[C@@H](CN=[N+]=[N-])O[C@@H]1O[C@H](CO)[C@@H](O)[C@H](O)[C@H]1N [Compound 6] ?
[out] 11.5 µM

[in] Which measured CC50 value corresponds to CCCCCCCCCCCCCCCCOCCCO[C@@H]1O[C@H](CN)[C@@H](O)[C@H](O)[C@H]1N [Compound 4] ?
[out] 6.5 µM

* * *

Tested on: JIMT-1 cells
Assay: MTS viability assay, JIMT-1 breast cancer cells
Type: cell-based, human
Settings: Table 6, 48 h, read-out: JIMT1 CC50
For each record, write down the corresponding CC50.

[in] Which measured CC50 value corresponds to CCCCCCCCCCCCCCCCOC[C@H](COC1O[C@H](CN)[C@@H](O)[C@H](O)[C@H]1NCCCCCCCCCCCCN)OC (stereo partly shown) ?
[out] 8 µM

[in] Which measured CC50 value corresponds to CCCCCCCCCCCCCCCCOC[C@H](COC1O[C@H](CNCCCN)[C@@H](O)[C@H](O)[C@H]1N)OC (stereo partly shown) ?
[out] 13.5 µM

[in] Which measured CC50 value corresponds to CCCCCCCCCCCCCCCCOC[C@H](COC1O[C@H](CNCCCCCCCCCCCCN)[C@@H](O)[C@H](O)[C@H]1N)OC (stereo partly shown) ?
[out] 3.4 µM

[in] Which measured CC50 value corresponds to CCCCCCCCCCCCCCCCOC[C@H](COC1O[C@H](CN)[C@@H](O)[C@H](O)[C@H]1NCCCN)OC (stereo partly shown) ?
[out] 12.5 µM
